details: human
Measured Hepatotoxicity (steatosis), listed per entry for reference.
Just the number, please.

These recorded examples may help you get a feel for the data.
// Hepatotoxicity (steatosis) lookup, compound = CC(C)NNC(=O)c1ccncc1 [IPRONIAZID] , result: 0

Note to self: Hepatotoxicity (steatosis) recorded for CC(CN(C)C)CN1c2ccccc2CCc2ccccc21 (stereo not given) [TRIMIPRAMINE] was 0

Value of Hepatotoxicity (steatosis) reported for the compound CCn1cc(C(=O)O)c(=O)c2ccc(C)nc21 [NALIDIXIC ACID] is 0

Others:
Hepatotoxicity (steatosis) in this record for CC(C(=O)O)c1cccc(C(=O)c2ccccc2)c1 (stereo not given) [KETOPROFEN] : 3

CC1(C)S[C@@H]2[C@H](NC(=O)C(C(=O)O)c3ccccc3)C(=O)N2[C@H]1C(=O)O (stereo not given in full) [CARBENICILLIN] has a reported Hepatotoxicity (steatosis) of 0

----------
experiment: Times to onset, minimal and maximal, observed in the indexed observations. [column 'DELAI' in source]; conditions: human
assay-metric: Hepatotoxicity (time to onset)

Reported Hepatotoxicity (time to onset) ( O=C(CCBr)N1CCN(C(=O)CCBr)CC1 [PIPOBROMAN] ) = 2 months

Measured Hepatotoxicity (time to onset) of O=C1CN=C(c2ccccc2Cl)c2cc([N+](=O)[O-])ccc2N1 [CLONAZEPAM] : 3 weeks - 4 months

# Hepatotoxicity (time to onset) (molecule: CCCC(=O)Nc1ccc(OCC(O)CNC(C)C)c(C(C)=O)c1 (stereo not given) [ACEBUTOLOL] ) is 1 day - 1 month

The molecule listed as CNC1Cc2ccccc2N(C)c2ccccc21 (stereo not given) [METAPRAMINE] shows Hepatotoxicity (time to onset) equal to 3 weeks - 3 months

Others:
So for Cc1ccc2c(c1)C(N1CCN(C)CC1)=Nc1ccccc1S2 [METIAPINE] , the logged Hepatotoxicity (time to onset) turned out to be 2 weeks - 2 months

Lab book: Hepatotoxicity (time to onset) of COc1nc(C)nc(Cl)c1N=C1NCCN1 [MOXONIDINE] noted as 9 months

# molecule CN(C)c1ccc(O)c2c1C[C@H]1C[C@H]3[C@H](N(C)C)C(O)=C(C(N)=O)C(=O)[C@@]3(O)C(O)=C1C2=O [MINOCYCLINE] ; its Hepatotoxicity (time to onset) = 4 days - 12 years

The measured Hepatotoxicity (time to onset) associated with CC(=O)Nc1ccc(OCC(O)CNC(C)C)cc1 (stereo not given) [PRACTOLOL] reads 16 months - 4 years

// Hepatotoxicity (time to onset) value for CCC1(c2ccccc2)C(=O)NC(=O)NC1=O [PHENOBARBITAL] : 6 days - 2 years

// NNc1nnc(NN)c2ccccc12 [DIHYDRALAZINE] : Hepatotoxicity (time to onset) value = 2 days - 3 years

----------
In this section we review reported Hepatotoxicity (acute) values for a set of compounds.
experiment: Highest frequency of acute liver toxicity observed during clinical trials, expressed as a percentage. [column '% AIGUE' in source]; conditions: human, Liver
Give just the number in %; leave the unit off.

// worked examples, Hepatotoxicity (acute) included
Summary for this compound, CCOc1cc(CC(=O)N[C@@H](CC(C)C)c2ccccc2N2CCCCC2)ccc1C(=O)O [REPAGLINIDE] : Hepatotoxicity (acute) is 0

Given item CC(C)(C)NC(=O)[C@@H]1CN(Cc2cccnc2)CCN1C[C@@H](O)C[C@@H](Cc1ccccc1)C(=O)N[C@H]1c2ccccc2C[C@H]1O.O , the value recorded as its Hepatotoxicity (acute) is 9.1

The compound listed as Clc1cccc(Cl)c1N=C1NCCN1 [CLONIDINE] shows Hepatotoxicity (acute) equal to 0

Lab note: OC(Cn1cncn1)(Cn1cncn1)c1ccc(F)cc1F [FLUCONAZOLE] gave Hepatotoxicity (acute) of 6.3

// next entry
Summary for this compound, [H]/N=C(/N)N[C@H]1[C@H](O)[C@@H](O)[C@H](O[C@@H]2O[C@@H](C)[C@](O)(C=O)[C@H]2O[C@@H]2O[C@@H](CO)[C@H](O)[C@@H](O)[C@@H]2NC)[C@@H](N/C(N)=N\[H])[C@@H]1O [STREPTOMYCIN] : Hepatotoxicity (acute) is 0

----------
assay: Highest frequency of acute liver toxicity observed during clinical trials, expressed as a percentage. [column '% AIGUE' in source]; conditions: human
assay-metric: Hepatotoxicity (acute) (%)
The reply should be a number in %, with the unit left off.

// known answers, use as guide
// Hepatotoxicity (acute) lookup, molecule = Cc1cc(C(=O)NCCc2ccc(S(=O)(=O)NC(=O)NN3CCCCCC3)cc2)no1 [GLISOXEPIDE] , result: 0

Consider O=C(CCCN1CCC(O)(c2ccc(Cl)cc2)CC1)c1ccc(F)cc1 [HALOPERIDOL] . Its measured Hepatotoxicity (acute) is 0.8

Hepatotoxicity (acute) reading for C[C@@H](O)[C@H]1C(=O)N2C(C(=O)O)=C(S[C@@H]3CN[C@H](C(=O)N(C)C)C3)[C@H](C)[C@H]12 [MEROPENEM] : 5.3

Please fill in: Hepatotoxicity (acute) reported for CNC(=C[N+](=O)[O-])NCCSCc1csc(CN(C)C)n1 [NIZATIDINE] = 0.2

molecule Nc1c(CC(=O)O)cccc1C(=O)c1ccc(Br)cc1 [BROMFENAC] , Hepatotoxicity (acute) observed: 0

Alright, here's another molecule for you.
The reported Hepatotoxicity (acute) of the molecule CC(=O)OCC1=C(C(=O)O)N2C(=O)[C@@H](NC(=O)CSc3ccncc3)[C@H]2SC1 [CEPHAPIRIN] was 0

----------
We begin with a simple list: items and their reported Hepatotoxicity (severe hepatitis).
settings: human, Liver
Reply: number alone, nothing else.

Entry CC1(C)NC(=O)N(c2ccc([N+](=O)[O-])c(C(F)(F)F)c2)C1=O [NILUTAMIDE] , Hepatotoxicity (severe hepatitis) reported as 4

New cases:
# Hepatotoxicity (severe hepatitis) of COc1cc2nc(N3CCN(C(=O)c4ccco4)CC3)nc(N)c2cc1OC = 0

Hepatotoxicity (severe hepatitis) reading for CCCSc1ccc2nc(NC(=O)OC)[nH]c2c1 : 0

// recorded Hepatotoxicity (severe hepatitis) for CCCN[C@H]1CCc2nc(N)sc2C1 [PRAMIPEXOLE] : 0

Input COc1cc([C@@H]2c3cc4c(cc3[C@@H](O[C@@H]3O[C@@H]5CO[C@@H](C)O[C@H]5[C@H](O)[C@H]3O)[C@H]3COC(=O)[C@H]23)OCO4)cc(OC)c1O [ETOPOSIDE] . Output Hepatotoxicity (severe hepatitis): 5

----------
Listed below: Hepatotoxicity (association with vascular disease) values for each entry.
settings: human
Please respond with just the number, no unit label.

Below are worked cases with known answers.
// Cc1cn([C@H]2CC[C@@H](CO)O2)c(=O)[nH]c1=O : Hepatotoxicity (association with vascular disease) value = 0

Record CC(O)(P(=O)(O)O)P(=O)(O)O . Reported Hepatotoxicity (association with vascular disease): 0

Reported Hepatotoxicity (association with vascular disease) for CCOC(=O)CN[C@@H](C(=O)N1CC[C@H]1C(=O)NCc1ccc(/C(N)=N\O)cc1)C1CCCCC1 was 0

Lab note: CC(CN1c2ccccc2Sc2ccccc21)N(C)C (centres undefined) gave Hepatotoxicity (association with vascular disease) of 0

Hepatotoxicity (association with vascular disease) measured on CC(=O)CC(c1ccc([N+](=O)[O-])cc1)c1c(O)c2ccccc2oc1=O (centres undefined) = 0

Hepatotoxicity (association with vascular disease) reported for this compound N[C@@H]1[C@H]2CN(c3nc4c(cc3F)c(=O)c(C(=O)O)cn4-c3ccc(F)cc3F)C[C@@H]12 : 0

// recorded Hepatotoxicity (association with vascular disease) for CNCCNc1ccc2c3c(nn2CCNCCO)-c2c(O)ccc(O)c2C(=O)c13 : 0

Note to self: Hepatotoxicity (association with vascular disease) recorded for Cc1ccnc2c1NC(=O)c1cccnc1N2C1CC1 was 0

New cases:
Measured Hepatotoxicity (association with vascular disease) of O=C(O)Cc1cn(-c2ccccc2)nc1-c1ccc(Cl)cc1 : 0

----------
test: Times to onset, minimal and maximal, observed in the indexed observations. [column 'DELAI' in source]; conditions: human
assay-metric: Hepatotoxicity (time to onset)

A selection of reference data follows.
Hepatotoxicity (time to onset) in this record for O=C(O)COCCN1CCN(C(c2ccccc2)c2ccc(Cl)cc2)CC1 (stereo not drawn) : 1 day - 2 years

Recorded result, NC(=O)N1c2ccccc2C=Cc2ccccc21 [CARBAMAZEPINE] , Hepatotoxicity (time to onset): 1 day - 8 years

Measured Hepatotoxicity (time to onset), NC(=O)CCC/N=C(\c1ccc(Cl)cc1)c1cc(F)ccc1O [PROGABIDE] : 2 weeks - 6 months

The recorded Hepatotoxicity (time to onset) for entry COc1cccc2c1C(=O)c1c(O)c3c(c(O)c1C2=O)C[C@@](O)(C(=O)CO)C[C@@H]3O[C@H]1C[C@H](N)[C@H](O)[C@H](C)O1 equals 1 week - 3 weeks

Hepatotoxicity (time to onset) reported for this compound CC(=O)O[C@H]1C[C@@]2(C)[C@@H](C[C@@H](O)[C@H]3[C@@]4(C)CC[C@@H](O)[C@@H](C)[C@@H]4CC[C@@]32C)/C1=C(\CCC=C(C)C)C(=O)O : 2 days - 2 months

Hepatotoxicity (time to onset) reading for CC(=O)[C@@]1(O)CC[C@H]2[C@@H]3C=C(Cl)C4=CC(=O)[C@@H]5C[C@@H]5[C@]4(C)[C@H]3CC[C@@]21C : 4 days - 10 years

So, O=C1CN=C(c2ccccc2)c2c(sc3c2CCCC3)N1 ? Its Hepatotoxicity (time to onset) was 1 month - 6 months

The compound listed as CCOC(=O)[C@H](CCc1ccccc1)N[C@H]1CCc2ccccc2N(CC(=O)O)C1=O has a reported Hepatotoxicity (time to onset) of 14 months

Further cases:
Recorded Hepatotoxicity (time to onset) (compound CN1CCN(CCCN2c3ccccc3Sc3ccc(S(=O)(=O)N(C)C)cc32)CC1 ): 24 days - > 1 month

The compound listed as CCN(CC)CCNC(=O)c1ccc(N)cc1 [PROCAINAMIDE] shows Hepatotoxicity (time to onset) equal to 3 hours - 3 months

Reported Hepatotoxicity (time to onset) for CCCCC1C(=O)NN(c2ccccc2)C1=O (stereo not drawn) was 2 years
